Test: Cytotoxicity against African green monkey Vero cells after 72 hrs by MTT assay
Format: cell-based
Conditions: chlorocebus sabaeus
Note to self: use T only for CC50 at 72 h readings below 40 µM; a reading exactly at 40 µM still gets F.

Prompt: Is the reported CC50 at 72 h for "NC(=O)/C=C/c1ccc2ccccc2n1" strictly below 40 µM?
Response: F

Prompt: Moving on to "OCC#Cc1ccc2ccccc2n1"
Response: T

Prompt: Same for "OC/C=C/c1cc(-c2ccc(F)cc2)c2cc(Cl)ccc2n1"
Response: T

Prompt: Quick one: "OC/C=C/c1ccc2cc(Cl)ccc2n1"
Response: T

Prompt: Do the same for "OC/C=C/c1ccc2cc(F)ccc2n1" please
Response: F

Prompt: Also "OC/C=C/c1ccc2ccccc2n1" , if possible.
Response: T

Prompt: Also, "CN1CCN(c2cc(/C=C/CO)nc3cc(F)c(Cl)cc23)CC1" please.
Response: F

Prompt: Also check "CCCCCCCCCCCCCCCCOP(=O)([O-])OCC[N+](C)(C)C"
Response: F

Prompt: Repeat for the following compound: "OC/C=C/c1cc(-c2ccc(F)cc2)c2cc(Cl)c(F)cc2n1"
Response: T

Prompt: Input "OC/C=C/c1ccc2c(F)c(Cl)ccc2n1"
Response: T

Prompt: What about this compound? "COc1ccc2nc(/C=C/CO)ccc2c1"
Response: F

Prompt: Try "N#C/C=C/c1ccc2ccccc2n1" next.
Response: F

Prompt: Likewise for "OC/C=C/c1cc(Oc2ccc(F)cc2)c2cc(Cl)ccc2n1" ?
Response: T
